meta.source: patent US20190241654A1

system under test: CD47 on CCRF-CEM cells (human, UniProt Q08722 19-323)
Sequence (Q08722 19-323): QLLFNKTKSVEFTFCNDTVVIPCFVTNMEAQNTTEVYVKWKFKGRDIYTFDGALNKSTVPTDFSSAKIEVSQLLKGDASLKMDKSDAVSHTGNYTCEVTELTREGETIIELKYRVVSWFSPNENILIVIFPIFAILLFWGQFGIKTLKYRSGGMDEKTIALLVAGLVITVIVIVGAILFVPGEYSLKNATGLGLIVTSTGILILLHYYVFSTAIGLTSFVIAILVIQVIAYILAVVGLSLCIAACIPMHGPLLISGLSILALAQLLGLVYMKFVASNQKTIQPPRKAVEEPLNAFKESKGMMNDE
protocol notes: cell-based or functional assay
Readings of Phagocytosis EC50 (ug/mL), Donor 1 for the listed binders
Please give a number only; it is taken to be in µg/mL.

* Ab356/Ab1121 (HC Ab356, LC Ab1121) anti-CD47 antibody (antibody, V domains shown, FR and CDR L2 variant of AbParental; The label order is HC/LC although the head says 'LC/HC'; the row in running number order (r442) is used) VH: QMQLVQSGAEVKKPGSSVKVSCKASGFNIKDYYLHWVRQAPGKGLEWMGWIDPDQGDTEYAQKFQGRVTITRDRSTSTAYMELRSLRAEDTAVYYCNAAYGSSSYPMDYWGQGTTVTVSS VL: NIQMTQSPSSLSASVGDRVTITCRASQDIHRYLSWFQQKPGKVPKHLIYRYIRFVDGVPSRFSGSGSGTEFTLTISSLQPEDFATYYCLQYDEFPYTFGGGTKVEIK | 0.48
* Ab480/Ab1127 (HC Ab480, LC Ab1127) anti-CD47 antibody (antibody, V domains shown, FR and CDR L2 variant of AbParental; The label order is HC/LC although the head says 'LC/HC'; r460 is used) VH: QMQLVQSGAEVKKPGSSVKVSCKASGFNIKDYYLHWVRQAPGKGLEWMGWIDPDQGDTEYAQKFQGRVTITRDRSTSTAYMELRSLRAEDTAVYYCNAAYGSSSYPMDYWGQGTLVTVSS VL: NIQMTQSPSSLSASVGDRVTITCRASQDIHRYLSWFQQKPGKVPKHLIYRESRFVDGVPSRFSGSGSGTEFTLTISSLQPEDFATYYCLQYDEFPYTFGGGTKVEIK | 1.88

# evaluate next
Q: Consider the binder Ab482/Ab387 (LC Ab482, HC Ab387) anti-CD47 antibody (antibody, V domains shown, Framework variant of AbParental) VH: QMQLVQSGAEVKKPGSSVKVSCKASGFNIKDYYLHWVRQAPGKGLEWMGWIDPDQGDTEYAQKFQGRVTITRDRSTSTAYMELRSLRSEDTAVYYCNAAYGSSSYPMDYWGQGTLVTVSS VL: NIQMTQSPSSMSASVGDRVTITCKASQDIHRYLSWFQQKPGKVPKHLIYRANRLVSGVPSRFSGSGSGTEFTLTISSLQPEDFATYYCLQYDEFPYTFGGGTKVEIK and give its measured Phagocytosis EC50 (ug/mL), Donor 1.
A: 0.15
